Task for the reader: assign each of the following compounds its reported solubility at 24 h.
- Method Notes: Solubility experiment (HPLC, external standard)
- Format: physicochemical
- Condition Label: ph 7.4 medium, pH 7.4, pH 7.4 medium, 37 °C, 24 h
Only the number, expressed in µg/mL, is required.

Req: Entry CCn1c(-c2cc(C#CCN3CCS(=O)(=O)CC3)cnc2[C@H](C)OC)c2c3cc(ccc31)-c1csc(n1)C[C@H](NC(=O)[C@@H](N)C1CCC1)C(=O)N1CCC[C@H](N1)C(=O)OCC(C)(C)C2 (atropisomer, axis not shown; (Ra)) : reported solubility at 24 h = ?
Resp: 15

Req: Entry CCn1c(-c2cc(C#CCN3CCC(C#N)(CO)CC3)c[n+]([O-])c2[C@H](C)OC)c2c3cc(ccc31)-c1csc(n1)C[C@H](NC(=O)[C@H]1[C@H](C)[C@@H]1C)C(=O)N1CCC[C@H](N1)C(=O)OCC(C)(C)C2 (atropisomer, axis not shown; (Ra)) : reported solubility at 24 h = ?
Resp: 5.01

Req: Entry CCn1c(-c2cc(C#CCN3CCN(C(C)=O)CC3)cnc2[C@H](C)OC)c2c3cc(ccc31)-c1csc(n1)C[C@H](NC(=O)[C@H]1[C@H](C)[C@@H]1C)C(=O)N1CCC[C@H](N1)C(=O)OCC(C)(C)C2 (atropisomer, axis not shown) [Control compound 2] : reported solubility at 24 h = ?
Resp: 1.5
